B1: DCAF4 (parent)
chain: DSHILLCLMGLAETPGCATLLPAS

Variants of: B1
Assay: protein stability index of a GFP-peptide fusion (GPS, HEK-293T) (PSI 1-6); higher = more stable;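 further: lentivirally expressed fusions sorted by FACS into six bins by GFP to DsRed ratio, PSI derived from sequencing read proportions per bin multiplied by bin number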
Conditions: c terminus: a fixed tail appended
Measurement label: protein stability index

Please give the measured protein stability index for this variant: `L11M`
2.42

Please give the measured protein stability index for this variant: `P15A`
3.15

Please give the measured protein stability index for this variant: `L11E`
1.3

Please give the measured protein stability index for this variant: `L6E`
2.01

Please give the measured protein stability index for this variant: `A12Q`
2.74

Please give the measured protein stability index for this variant: `T14G`
2.77

Please give the measured protein stability index for this variant: `T14V`
2.66

Please give the measured protein stability index for this variant: `D1K`
2.07

Please give the measured protein stability index for this variant: `S2N`
2.39

Please give the measured protein stability index for this variant: `A23V`
1.49

Please give the measured protein stability index for this variant: `L6P`
2.74
